A collection of sequences and their measured apparent Tm (melting temperature)
Test: pMHC thermal stability by circular dichroism
Format: physicochemical
Conditions: CD thermal denaturation at 218 nm, PBS, ∼3 μM, 0.1-cm cell, two-state trimer-to-monomer fit
Report the value in °C with no unit label.

chain	apparent Tm (melting temperature), °C
ILGKFLHRL	55.9
ILGKFLHTL	55.6

Output measured apparent Tm (melting temperature) for this item: ILAKFLHWL
54.5

Output measured apparent Tm (melting temperature) for this item: ILAKFLHEL
58.8

Output measured apparent Tm (melting temperature) for this item: ILAKFLHTL
58.7

Output measured apparent Tm (melting temperature) for this item: ILAKFLHRL
60.9

Output measured apparent Tm (melting temperature) for this item: ILGKFLHWL
49.8

* * *

Target: ILA1 TCR
Assay: Surface plasmon resonance binding of ILA1 TCR to HLA-A*0201-ILA peptide variants
Parameters: species or system human
Details: equilibrium binding, SPR, 25 °C, serial dilutions in duplicate, three independent experiments
endpoint.name: Kd (µM)
Report the value in µM with no unit label.

chain	units.label	Kd
ILAKFLHRL	µM	151

// next entry
For ILA1 TCR, give the measured Kd of the entry ILGKFLHRL
1

Data credit: paper PMC5247654
